The values you see were collected from patent US20110071129A1.

// UniProt Q99705 IC50 records
Sequence (Q99705 whole entry): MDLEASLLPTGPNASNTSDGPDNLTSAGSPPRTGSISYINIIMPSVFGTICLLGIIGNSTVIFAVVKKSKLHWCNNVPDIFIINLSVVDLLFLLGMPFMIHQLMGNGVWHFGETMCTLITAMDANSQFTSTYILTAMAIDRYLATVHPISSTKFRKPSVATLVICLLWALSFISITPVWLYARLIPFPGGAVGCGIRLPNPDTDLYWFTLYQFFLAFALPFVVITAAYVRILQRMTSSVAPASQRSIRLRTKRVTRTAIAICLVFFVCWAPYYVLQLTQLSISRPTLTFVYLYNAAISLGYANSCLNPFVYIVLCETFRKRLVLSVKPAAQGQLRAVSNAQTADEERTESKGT

CCO/N=C(\c1ccc(F)c(F)c1)c1ccc(CN2CC3(C2)CN(c2ccn4ccnc4c2)C3)cn1 ... 0.9 nM
CCO/N=C(\c1ccc(F)c(F)c1)c1ccc(CN2CC3(C2)CN(c2ccnc(C)c2)C3)cn1 ... 2.4 nM

Turning to the following compound.
If you can, please state the reported IC50 value of `CCCc1cnc2cc(N3CC4(CN(Cc5ccc(/C(=N/OCC)c6ccc(F)c(F)c6)nc5)C4)C3)ccn12` . 0.36 nM
